Data provenance: paper PMC5125937

# tgt: T1, EcZapD WT (residues 1-247) (E. coli, UniProt P36680 1-247)
# T1 sequence: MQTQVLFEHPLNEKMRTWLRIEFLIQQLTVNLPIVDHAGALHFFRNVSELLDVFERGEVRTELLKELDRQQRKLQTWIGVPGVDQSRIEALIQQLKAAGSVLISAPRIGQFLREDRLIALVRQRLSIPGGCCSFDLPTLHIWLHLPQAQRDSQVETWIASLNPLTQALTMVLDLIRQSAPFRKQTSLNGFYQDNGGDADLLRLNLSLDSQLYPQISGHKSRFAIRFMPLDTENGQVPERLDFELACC
# protocol: BLI
property_label: Kd (µM)

- KEPDYLDIPAFLRDQAD [GST-FtsZ_(367-383) K380D]: 4.7
- KEPDYLDIPAFLRKQAD [GST-FtsZ_(367-383)]: 4.4
